# Study target: NK1 receptor (Cavia porcellus)
# Sequence (P30547 whole entry): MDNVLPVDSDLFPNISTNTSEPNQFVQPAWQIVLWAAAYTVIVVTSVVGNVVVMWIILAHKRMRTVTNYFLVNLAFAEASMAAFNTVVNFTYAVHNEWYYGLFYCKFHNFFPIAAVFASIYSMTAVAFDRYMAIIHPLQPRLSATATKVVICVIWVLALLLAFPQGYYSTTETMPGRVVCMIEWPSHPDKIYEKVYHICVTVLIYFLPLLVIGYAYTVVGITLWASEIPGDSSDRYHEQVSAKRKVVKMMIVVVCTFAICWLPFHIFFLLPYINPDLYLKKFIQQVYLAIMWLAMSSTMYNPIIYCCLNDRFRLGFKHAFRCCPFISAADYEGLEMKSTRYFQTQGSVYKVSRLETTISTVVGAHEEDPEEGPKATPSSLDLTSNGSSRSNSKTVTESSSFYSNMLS
pIC50: −log10 of the molar value.
Reported pIC50 values for a set of compounds
Measured parameter: pIC50

- Compound: "COc1cc(C(=O)N2CCC(CCN3CCC(C(N)=O)(c4ccccc4)CC3)(c3ccc(Cl)c(Cl)c3)C2)cc(OC)c1OC.Cl (single isomer, unassigned; (+)) [Example 20A, hydrochloride]"
  Experimental value: 8.52
- Compound: "COc1cc(C(=O)N2CCC(CCN3CCC(C(N)=O)(c4ccccc4)CC3)(c3ccc(Cl)c(Cl)c3)C2)cc(OC)c1OC (single isomer, unassigned; (-)) [Example 21]"
  Experimental value: 6.74
- Compound: "COc1cc(C(=O)N2CCC(CCN3CCC(C(N)=O)(c4ccccc4)CC3)(c3ccc(Cl)c(Cl)c3)C2)cc(OC)c1OC (single isomer, unassigned; (+)) [Example 20]"
  Experimental value: 8.33
